# assay-comment: Pharmacokinetic test in rats
# Type: in vivo, SD rats
# measurement-parameters: male, rat, po; SD rats, plasma, i.g. (10 mg/kg)
experimental-endpoint: Cmax (ng/mL)
Write the answer as a number in ng/mL, unit excluded.

Consider the compound shown here: CCO[C@H]1CCN(Cc2c(OC)cc(C)c3[nH]ccc23)[C@H](c2ccc(C(=O)O)cc2)C1 [LNP023] What is its recorded Cmax?
867

---

# assay-comment: Pharmacokinetic test in rats
# Type: in vivo, SD rats
# measurement-parameters: male, rat, po; SD rats, plasma, i.g. (10 mg/kg)
experimental-endpoint: Tmax (h)
Write the value in h as a bare number.

Please report the recorded Tmax for CCO[C@H]1CCN(Cc2c(OC)cc(C)c3[nH]ccc23)[C@H](c2ccc(C(=O)O)cc2)C1 .
3.5
